TARGET_OR_TEST_SYSTEM: Estrogen receptor (Homo sapiens)
Sequence (P03372 whole entry): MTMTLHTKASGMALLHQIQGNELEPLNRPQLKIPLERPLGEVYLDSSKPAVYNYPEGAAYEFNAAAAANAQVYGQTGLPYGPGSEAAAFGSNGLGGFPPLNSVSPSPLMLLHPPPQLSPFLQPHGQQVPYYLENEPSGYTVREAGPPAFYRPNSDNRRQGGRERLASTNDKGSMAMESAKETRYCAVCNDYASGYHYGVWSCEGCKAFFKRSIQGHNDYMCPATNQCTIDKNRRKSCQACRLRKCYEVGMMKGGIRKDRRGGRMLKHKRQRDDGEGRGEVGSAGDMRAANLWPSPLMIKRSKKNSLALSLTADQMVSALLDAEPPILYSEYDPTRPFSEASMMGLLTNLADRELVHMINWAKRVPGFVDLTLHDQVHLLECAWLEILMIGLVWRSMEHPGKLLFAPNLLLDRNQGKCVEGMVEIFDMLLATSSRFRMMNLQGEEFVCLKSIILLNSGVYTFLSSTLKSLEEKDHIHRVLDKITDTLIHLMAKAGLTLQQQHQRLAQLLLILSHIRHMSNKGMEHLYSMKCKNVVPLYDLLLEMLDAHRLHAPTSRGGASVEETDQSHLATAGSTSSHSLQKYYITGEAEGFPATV
pEC50: −log10 of the molar value.
PROPERTY_LABEL: pEC50

Oc1ccc(CNc2nc(Cl)nc3scc(-c4ccccc4)c23)cc1O: < 5.00

----------
TARGET_OR_TEST_SYSTEM: UniProt:P03372
pEC50: −log10 of the molar value.
PROPERTY_LABEL: pEC50

Oc1ccc(CNc2nc(Cl)nc3scc(-c4ccccc4)c23)cc1O: < 5.00
